Hello, the source for this data is the supplement of paper PMC10567573, in case you need it.

B1: POMT2 (parent)
chain: VLRSRIRFIHLVTGCVLGSSGKVL

- Variants of: B1
- Measurement protocol: protein stability index of a GFP-peptide fusion (GPS, HEK-293T) (PSI 1-6); higher = more stable;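 note: lentivirally expressed fusions sorted by FACS into six bins by GFP to DsRed ratio, PSI derived from sequencing read proportions per bin multiplied by bin number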
- Condition description: c terminus: a fixed tail appended
Catalogue of variants with associated protein stability index

VLRSRIRFIKLVTGCVLGSSGKVL [H10K] :: 1.58

Next variant, please.
Fill in: protein stability index of VLRSRIRFSHLVTGCVLGSSGKVL [I9S] is ___
2.78
